We begin with a simple list: items and their reported reverse-splicing fitness.
B1: Azoarcus group I ribozyme (parent)
chain: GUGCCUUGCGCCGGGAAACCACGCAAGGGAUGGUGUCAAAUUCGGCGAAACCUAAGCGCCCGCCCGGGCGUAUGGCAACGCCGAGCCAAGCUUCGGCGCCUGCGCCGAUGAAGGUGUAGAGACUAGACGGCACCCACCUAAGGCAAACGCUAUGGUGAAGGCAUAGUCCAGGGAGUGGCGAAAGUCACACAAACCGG

- Variants of: B1
- ASSAY_REMARKS: reverse-splicing fitness (ratio to wild type); higher = more active; in vitro selection; Mg2+ level not given
READOUT_TYPE: reverse-splicing fitness

A120C A145G	0.772
C82G A111G A120C A145U C150G C169U	0.00899
C82G A111U A145G	0.424
A111U A120C C150U C169U U176G	0.00585
C150G C169U	0.0492
C82A A120C A145G C150U U176G	0.0102
C82U A120U A145U C150A C169A U176C	0.00203
A111C A120G A145U C169A U176G	0.0051
A120C A145C C150U U176C	0.317
A111C A120U C150A U176G	0.0153
C82G A111U A120U A145G C150G C169U	0.00767
C82A A145G C169A	0.0112
C82U A111U A145U C150U C169A U176G	0.00627
C82G A111G A120C A145G C150G C169G U176C	0.0112
A145C C150G C169G U176C	0.00959
C82G A120C A145U C150G C169G U176G	0.00427
C82A A111C A120C	0.0246
C82U A120G A145U C169A	0.017
A120C C150A	0.241
C82A A120C A145C C150G C169G	0.00784
C82G A111U A120C A145U C150A U176C	0.018
C82G A111G A120C A145C C150U C169G U176C	0.0152
C82U A111G A120G U176A	0.013
C82A A111G A120C C150A C169G U176C	0.0256
C82A A111G A145C C150G C169G U176G	0.00649
A111C A120G A145U C150A C169G U176G	0.00467
A111U A120U C150U C169U U176A	0.0088
C82A A111U A120G C150U C169A	0.0106
A111C A120U A145C C150A C169A U176G	0.00226
C82U A120C A145U C169U U176A	0.0169
C82G A120U A145C C150U C169G U176G	0.00162
C82G A111G A120U A145G	0.0663
C150U U176C	0.869
A111U A120G A145U C150A C169A U176A	0.0123
C82U A120U C169G U176G	0.0015
A111C A120U C150G C169A U176G	0.00363
C82G A111U A145C C150G C169G U176A	0.00943
A111U A120C A145G C150G C169G U176G	0.00555
C82U A111G A145U C169G	0.00731
C82U A111C C150A C169G U176A	0.0162
A111G A120U C150U C169A U176G	0.00227
C82A A120C A145U C169A U176A	0.0129
C82U A120G A145G C150A	0.00966
A111U A120C C150G C169U U176A	0.00853
C82U A111G A145G C150A C169U U176A	0.0135
C82U A111G A120U C169U U176A	0.00282
